TEST_NAME: binders of probe aFGF10 on microarray, primary screen, stem cell growth factor project, biochemical, small-molecule microarray, fluorescence 635/667 (AID 1071);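 also: score merges 667 nm spot intensity and signal to noise from triplicate slides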
ASSAY_SETUP: higher = more signal
ENDPOINT: composite z-score
Could you keep your reply to the number by itself?

Check out these entries, answers already filled in.
COc1cccc(C)c1NC(=O)O[C@H]1[C@H](OC(=O)Nc2ccccc2)[C@@H](OC(=O)Nc2ccccc2)[C@@H](OC)O[C@@H]1CO; 1.06
CC(CO)N1C(=O)[C@@H]2[C@H]3C(=O)OCC=C[C@H]3OC23C=CCN(c2ccc4ccccc4c2)C(=O)[C@@H]13 (some centres undefined); -0.451
O=C(NCC(F)(F)F)[C@@H]1c2ccccc2C(=O)N(Cc2cc(C(F)(F)F)cc(C(F)(F)F)c2)[C@H]1c1ccc(CO)cc1; -0.155

Lab book: composite z-score of "COc1ccc(CCNC(=O)[C@@H]2c3ccccc3C(=O)N(Cc3cc(F)cc(C(F)(F)F)c3)[C@H]2c2ccc(CO)cc2)cc1" noted as 0.235

Where do these numbers come from? They come from PubChem BioAssay.
